test: melting temperature; fluorescence melt of hairpins on a sequencing array, two-state fit, raised by 9.35 °C to match UV melts; details: sodium 0.088 M
Listed sequences paired with reported Tm
Give your result in °C as a bare value.

Take a look at these entries with their results.
sequence-input	unit-tag	Tm
GACGCACCGAAAGGTGTC (((..(((....))))))	°C	32.1
GGTTTGGGAAACCAAGTC (..((((....))))..)	°C	28.1

Would you kindly look at the next entry?
Record request: Tm value, item GTAGCAGGAAACTGCCAC ((.((((....)))).))
36.7

* * *

experiment: melting temperature; fluorescence melt of hairpins on a sequencing array, two-state fit, raised by 9.35 °C to match UV melts; settings: sodium 0.088 M
measured-quantity: Tm (°C)
Give your result in °C as a bare value.

Take a look at these entries with their results.
sequence-input	Tm [°C]
GCCTCTTCGAAAGAAGGC (((..(((....))))))	39.4
GACAACGAAAGTTCAGTC ((((((....)))..)))	27.6
GGTCGCGAAAGCGTTACC ((((((....)))..)))	41.4
GATCGGAGACCGATC ((((((...))))))	56.7
GATCGACTATTCGATC ((((((....))))))	50.5

Would you kindly look at the next entry?
Record request: Tm value, item GCCTGTGGAAACGTAGGC ((((..(....)..))))
48.2

* * *

assay: melting temperature; fluorescence melt of hairpins on a sequencing array, two-state fit, raised by 9.35 °C to match UV melts; settings: sodium 0.088 M
measured-quantity: Tm (°C)
Give your result in °C as a bare value.

Take a look at these entries with their results.
sequence-input	Tm [°C]
GCGACCGCGAAAGCGCGC (((..(((....))))))	56.1
GCCGTGCGAAAGCCTGGC (((..((....))..)))	56.2
GCTCCGCGAAAGCAAAGC (((..((....))..)))	31.5

Would you kindly look at the next entry?
Record request: Tm value, item GCGAGTATCGC ((((...))))
58.4

* * *

experiment: melting temperature; fluorescence melt of hairpins on a sequencing array, two-state fit, raised by 9.35 °C to match UV melts; conditions: sodium 0.088 M
Listed sequences paired with reported Tm
Param answer (str): number followed by unit.

sequence-input	measured-quantity	result
GATCTCAATGGAGATC ((((((....))))))	Tm	51.5 °C
GCTGGCGAAAGCCCCAGC ((((((....)))..)))	Tm	43.5 °C
GGTGAGTCGAAAGACACC (((..(((....))))))	Tm	39.5 °C
GACGACGAAAGTCCAGTC ((((((....)))..)))	Tm	36.2 °C
GATCTAACGCTAGATC ((((((....))))))	Tm	38.1 °C

Record request: Tm value, item GAGTCGGGAAACCGATTC ((.((((....)))).))
47.7 °C

Record request: Tm value, item GTCGCTGGAAACAGTGAC (((.(((....))).)))
54.9 °C

* * *

assay: folding enthalpy; higher = less favourable; fluorescence melt of hairpins on a sequencing array, two-state fit; settings: sodium 0.088 M
measured-quantity: folding enthalpy (kcal/mol)
Give your result in kcal/mol as a bare value.

sequence-input	result-number
GAATTGGGAAACTAATTC (((((.(....).)))))	-22.7
GGTTGGCGAAAGCCCACC (((.(((....))).)))	-25.8
GCGTCCACGAAAGTGCGC (((..(((....))))))	-23.3

Record request: folding enthalpy value, item GTGGGAGGAAACTCTCAC (((.(((....))).)))
-39.1
